- Assayed System: cannabinoid receptor 1 (CB1) (Homo sapiens, UniProt P21554)
- Sequence (P21554 whole entry): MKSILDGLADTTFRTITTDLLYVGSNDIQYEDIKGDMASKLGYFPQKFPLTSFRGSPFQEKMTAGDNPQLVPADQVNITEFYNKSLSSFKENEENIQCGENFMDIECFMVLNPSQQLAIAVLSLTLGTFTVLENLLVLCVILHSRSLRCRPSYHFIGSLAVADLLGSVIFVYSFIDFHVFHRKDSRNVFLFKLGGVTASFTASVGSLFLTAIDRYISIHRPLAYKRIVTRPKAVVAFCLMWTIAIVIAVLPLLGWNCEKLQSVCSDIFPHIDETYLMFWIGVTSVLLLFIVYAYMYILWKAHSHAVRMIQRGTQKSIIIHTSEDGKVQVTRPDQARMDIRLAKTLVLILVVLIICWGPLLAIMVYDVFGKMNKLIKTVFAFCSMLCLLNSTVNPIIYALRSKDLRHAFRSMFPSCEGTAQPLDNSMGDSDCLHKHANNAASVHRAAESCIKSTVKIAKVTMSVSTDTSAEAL
Measurement Name: IC50 (µM)
Numbers only, in µM.

Exercise: Item under review: Cc1c(C(=O)NN2CCOCC2)nn(-c2ccc(Cl)cc2Cl)c1-c1ccc(I)cc1 . Reported IC50?
Key: 0.0224
